The following molecules are listed with their measured CB2 selectivity Ki CB1/KiCB2 values.
target: CB2 receptor (Homo sapiens)
Sequence (P34972 whole entry): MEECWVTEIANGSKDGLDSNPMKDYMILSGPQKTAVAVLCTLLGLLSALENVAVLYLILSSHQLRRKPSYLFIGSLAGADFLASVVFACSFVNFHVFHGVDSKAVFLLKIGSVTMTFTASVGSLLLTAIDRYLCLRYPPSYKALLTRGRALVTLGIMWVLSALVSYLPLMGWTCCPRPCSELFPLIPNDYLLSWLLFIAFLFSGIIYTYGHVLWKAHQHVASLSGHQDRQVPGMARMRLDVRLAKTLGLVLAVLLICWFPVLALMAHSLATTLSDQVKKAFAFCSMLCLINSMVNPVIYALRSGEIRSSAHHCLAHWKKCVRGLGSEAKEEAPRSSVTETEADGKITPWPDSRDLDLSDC
testDescription: biochemical
Type: binding
Parameters: expressed in transfected cells; host or cells: CHO cells (membrane preparation)
studyConditions: Table S1, selectivity index from Ki values

molecule	CB2 selectivity Ki CB1/KiCB2
CC1(C)C(C(=O)c2cn(CCCC(F)(F)F)c3ccccc23)C1(C)C [Compound 41, XLR-12]	52.6
Cc1ccc(C(=O)c2cn(CCCC(C)F)c3ccccc23)c2ccccc12 (stereo not drawn) [Compound 32, MAM-2201-4-fluoropentyl-isomer]	4.0
Cc1ccc(C(=O)c2cn(CCCCCF)c3ccccc23)c2ccccc12 [Compound 30, MAM-2201]	2.7
CCCCCn1nc(C(=O)Nc2cccc3cccnc23)c2ccccc21 [Compound 10, THJ]	8.1
CCCCCn1nc(C(=O)Oc2cccc3ccccc23)c2ccccc21 [Compound 22, SDB-005]	1.4
O=C(c1cn(CCCCCF)c2ccccc12)C12CC3CC(CC(C3)C1)C2 [Compound 36, 5F-AB001]	8.4
O=C(NC12CC3CC(CC(C3)C1)C2)c1nn(CCCCCF)c2ccccc12 [Compound 17, 5F-APINACA (5F-AKB48)]	7.3
COc1ccccc1CC(=O)c1cn(CCC2CCCCC2)c2ccccc12 [Compound 34, RCS-8]	5.6
CCc1ccc(C(=O)c2cn(CCCCCF)c3ccccc23)c2ccccc12 [Compound 31, EAM-2201]	1.0
O=C(c1cccc2ccccc12)c1nn(CCCCCF)c2ccccc12 [Compound 29, THJ2201]	1.0
O=C(Nc1cccc2cccnc12)c1nn(CCCCCF)c2ccccc12 [Compound 11, 5F-THJ]	8.2
O=C(Nc1ccc2ccccc2c1)c1cn(CCCCCF)c2ccccc12 [Compound 7, 5F-NNEI-2-naphthyl-isomer]	1.0
CCCCCn1nc(C(=O)c2cccc3ccccc23)c2ccccc21 [Compound 28, THJ018]	1.3
O=C(NC12CC3CC(CC(C3)C1)C2)c1cn(CCCCCF)c2ccccc12 [Compound 16, STS-135 (5F-APICA)]	3.2
CCCCCn1cc(C(=O)C23CC4CC(CC(C4)C2)C3)c2ccccc21 [Compound 35, AB001]	19.2
CC1(C)C(C(=O)c2nn(CCCCCF)c3ccccc23)C1(C)C [Compound 40, FAB-144]	38.9

* * *

target: CB2 receptor (Homo sapiens)
testDescription: biochemical
Type: binding
Set-up: expressed in transfected cells; host or cells: CHO cells (membrane preparation)
measurementName: Ki (nM)

molecule	target	val
CN1CCCCC1Cn1cc(C(=O)C2C(C)(C)C2(C)C)c2ccccc21 (stereo not shown)	CB2 receptor (Homo sapiens)	1.04

* * *

target: human GPR18 (Homo sapiens)
Construct: β-galactosidase enzyme fragment (PathHunter complementation tag)
Sequence (Q14330 1-331): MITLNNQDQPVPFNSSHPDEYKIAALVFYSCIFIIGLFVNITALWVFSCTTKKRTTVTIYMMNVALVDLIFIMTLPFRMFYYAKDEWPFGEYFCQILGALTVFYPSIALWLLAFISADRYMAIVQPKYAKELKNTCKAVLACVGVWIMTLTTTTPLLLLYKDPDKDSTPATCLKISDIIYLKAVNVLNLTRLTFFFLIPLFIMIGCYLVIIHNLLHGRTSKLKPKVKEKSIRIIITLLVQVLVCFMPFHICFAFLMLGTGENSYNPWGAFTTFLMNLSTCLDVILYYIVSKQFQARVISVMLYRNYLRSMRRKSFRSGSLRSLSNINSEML
testDescription: β-Arrestin recruitment assay (PathHunter) at GPR18
Format: cell-based
studyConditions: β-arrestin assay; percent in brackets beside EC50 >10 µM
The following compounds are listed with their measured Human GPR18 % activation values.

compound	target	Human GPR18 % activation (%)
CC1(C)C(C(=O)c2cn(CCN3CCOCC3)c3ccccc23)C1(C)C [Compound 45, A-796,260]	human GPR18 (Homo sapiens)	20
CC1(C)C(C(=O)c2cn(Cc3ccc(F)cc3)c3ccccc23)C1(C)C [Compound 42, FUB-144]	human GPR18 (Homo sapiens)	−12
O=C(Nc1cccc2ccccc12)c1nn(CCCCCF)c2ccccc12 [Compound 9, 5F-MN-18]	human GPR18 (Homo sapiens)	−26
CCCCCn1nc(C(=O)Nc2cccc3ccccc23)c2ccccc21 [Compound 8, MN-18]	human GPR18 (Homo sapiens)	2
CCCCCn1nc(C(=O)Oc2cccc3ccccc23)c2ccccc21 [Compound 22, SDB-005]	human GPR18 (Homo sapiens)	15
CCCCCn1cc(C(=O)Nc2ccccc2)c2ccccc21 [Compound 14, SDB-006-N-phenyl-analog]	human GPR18 (Homo sapiens)	9
O=C(Oc1cccc2ccccc12)c1nn(CCCCCF)c2ccccc12 [Compound 23, 5F-SDB-005]	human GPR18 (Homo sapiens)	21
CCCCCn1cc(C(=O)C23CC4CC(CC(C4)C2)C3)c2ccccc21 [Compound 35, AB001]	human GPR18 (Homo sapiens)	−12
CCCCCn1cc(C(=O)NC23CC4CC(CC(C4)C2)C3)c2ccccc21 [Compound 15, APICA]	human GPR18 (Homo sapiens)	8
CCCC(F)Cn1cc(C(=O)C2C(C)(C)C2(C)C)c2ccccc21 (stereo not drawn) [Compound 39, XLR-11-2-fluoropentyl-isomer]	human GPR18 (Homo sapiens)	24
COc1cccc2c(C(=O)C3C4(C)CCC(C4)C3(C)C)c(C)n(CCN3CCOCC3)c12 (stereo not shown) [Compound 48, MN-25]	human GPR18 (Homo sapiens)	−12
CCCCCn1nc(C(=O)Nc2cccc3cccnc23)c2ccccc21 [Compound 10, THJ]	human GPR18 (Homo sapiens)	4
O=C(Oc1cccc2ccccc12)c1cn(Cc2ccc(F)cc2)c2ccccc12 [Compound 20, FDU-PB-22]	human GPR18 (Homo sapiens)	30
O=C(Nc1ccc2ccccc2c1)c1cn(CCCCCF)c2ccccc12 [Compound 7, 5F-NNEI-2-naphthyl-isomer]	human GPR18 (Homo sapiens)	9
CCCCCn1nc(C(=O)c2cccc3ccccc23)c2ccccc21 [Compound 28, THJ018]	human GPR18 (Homo sapiens)	33
O=C(NC12CC3CC(CC(C3)C1)C2)c1cn(CCCCCF)c2ccccc12 [Compound 16, STS-135 (5F-APICA)]	human GPR18 (Homo sapiens)	−2
CCCCCn1cc(C(=O)Oc2cccc3cccnc23)c2ccccc21 [Compound 24, PB-22]	human GPR18 (Homo sapiens)	−18
CN1CCCCC1Cn1cc(C(=O)C2C(C)(C)C2(C)C)c2ccccc21 (stereo not shown) [Compound 43, AB005]	human GPR18 (Homo sapiens)	−38
CN1CCCCC(Cn2cc(C(=O)C3C(C)(C)C3(C)C)c3ccccc32)C1 (stereo not drawn) [Compound 44, AB005-azepane-isomer]	human GPR18 (Homo sapiens)	11
O=C(Oc1cccc2cccnc12)c1cn(Cc2ccc(F)cc2)c2ccccc12 [Compound 26, FUB-PB-22]	human GPR18 (Homo sapiens)	15
CC1(C)C(C(=O)c2nn(CCCCCF)c3ccccc23)C1(C)C [Compound 40, FAB-144]	human GPR18 (Homo sapiens)	2
O=C(c1cn(CCCCCF)c2ccccc12)C12CC3CC(CC(C3)C1)C2 [Compound 36, 5F-AB001]	human GPR18 (Homo sapiens)	−6
